Origin of values: patent US5424303A

system: plasma cholesterol; test: Hypocholesterolemic activity, plasma cholesterol in mice fed test compound in diet; type: in vivo, OF1 strain mice; conditions: Mus musculus, feed or water, 240 h, read-out: Plasma Cholesterol (% Control), 0.1% compound in food, 10 days, ca. 180 mg/kg daily, mouse
Please enter y where change in vivo at 180 mg/kg/day is greater than or equal to -10%, and n where it is lower.

[in] Does the molecule CCOP(=O)(OCC)C(NC(=O)OCc1ccccc1)c1cc(C(C)(C)C)c(O)c(C(C)(C)C)c1 (stereo not drawn) have recorded change in vivo at 180 mg/kg/day that is -10% or more?
[out] y

[in] Hi team, for CCCCCc1ccc(NC(c2cc(C(C)(C)C)c(O)c(C(C)(C)C)c2)P(=O)(OCC)OCC)cc1 (stereo not drawn) , is the recorded change in vivo at 180 mg/kg/day at or above -10%?
[out] y

[in] Entry CCOP(=O)(OCC)C(NCCCc1ccccc1)c1ccc(OC)cc1 (stereo not drawn) : is its change in vivo at 180 mg/kg/day no less than -10%?
[out] y
